Where do the numbers come from? From patent US20120172293A1.

# target_entity: human Y2 receptor (human) (UniProt P49146)
# Sequence (P49146 whole entry): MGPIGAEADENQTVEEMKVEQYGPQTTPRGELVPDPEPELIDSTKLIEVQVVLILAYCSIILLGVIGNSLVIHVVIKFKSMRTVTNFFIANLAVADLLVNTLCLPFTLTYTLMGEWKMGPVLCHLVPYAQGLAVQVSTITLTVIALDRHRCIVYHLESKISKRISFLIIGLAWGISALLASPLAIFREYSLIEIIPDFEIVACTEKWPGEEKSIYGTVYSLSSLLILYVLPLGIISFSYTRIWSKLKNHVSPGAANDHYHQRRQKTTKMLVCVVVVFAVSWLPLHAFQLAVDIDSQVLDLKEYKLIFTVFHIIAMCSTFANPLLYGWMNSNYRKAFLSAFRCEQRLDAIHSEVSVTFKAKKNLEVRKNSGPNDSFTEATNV
# assay_overview: cell-based or functional assay
Non-standard residues stand in square brackets, D forms with d. No end group written: not given here. *: point of attachment. tBuAla = CC(C)(C)C[C@H](N)C(=O)O; 4Pal = N[C@@H](Cc1ccncc1)C(=O)O; Cha = N[C@@H](CC1CCCCC1)C(=O)O; Isobutyryl = CC(C)C(=O)*; Abu = CC[C@H](N)C(=O)O; Aib = CC(C)(N)C(=O)O; GABA = NCCCC(=O)O
Labelling: GBA EC50 Ratio (vs PYY(3-36)), [35S]GTPγS reported below 4 becomes 1; at or above becomes -1.

>  <binder>
[dS]LR[Abu][Cha][Cha]NL[Aib]TRQR[Cha]-NH2 (N-terminus assumed; SMILES CC[C@H](NC(=O)[C@H](CCCNC(=N)N)NC(=O)[C@H](CC(C)C)NC(=O)[C@H](N)CO)C(=O)N[C@@H](CC1CCCCC1)C(=O)N[C@@H](CC1CCCCC1)C(=O)N[C@@H](CC(N)=O)C(=O)N[C@@H](CC(C)C)C(=O)NC(C)(C)C(=O)N[C@H](C(=O)N[C@@H](CCCNC(=N)N)C(=O)N[C@@H](CCC(N)=O)C(=O)N[C@@H](CCCNC(=N)N)C(=O)N[C@@H](CC1CCCCC1)C(N)=O)[C@@H](C)O) [[D-Ser23, Abu26, Cha27,28,36, Aib31]-PYY(23-36)]

>  <discrete_label>
-1

$$$$
>  <binder>
Ac-E[dP]R[4Pal][Cha][Cha]NL[Aib]TRQR[Cha]-NH2 (SMILES CC(=O)N[C@@H](CCC(=O)O)C(=O)N1CCC[C@@H]1C(=O)N[C@@H](CCCNC(=N)N)C(=O)N[C@@H](Cc1ccncc1)C(=O)N[C@@H](CC1CCCCC1)C(=O)N[C@@H](CC1CCCCC1)C(=O)N[C@@H](CC(N)=O)C(=O)N[C@@H](CC(C)C)C(=O)NC(C)(C)C(=O)N[C@H](C(=O)N[C@@H](CCCNC(=N)N)C(=O)N[C@@H](CCC(N)=O)C(=O)N[C@@H](CCCNC(=N)N)C(=O)N[C@@H](CC1CCCCC1)C(N)=O)[C@@H](C)O) [Ac-[Glu23, D-Pro24, Pya(4)26, Cha27,28,36, Aib31]-PYY(23-36)]

>  <discrete_label>
1

$$$$
>  <binder>
Isobutyryl-E[dP]R[4Pal][Cha][tBuAla]NK[Aib]TRQR[Cha]-NH2 (SMILES CC(C)C(=O)N[C@@H](CCC(=O)O)C(=O)N1CCC[C@@H]1C(=O)N[C@@H](CCCNC(=N)N)C(=O)N[C@@H](Cc1ccncc1)C(=O)N[C@@H](CC1CCCCC1)C(=O)N[C@@H](CC(C)(C)C)C(=O)N[C@@H](CC(N)=O)C(=O)N[C@@H](CCCCN)C(=O)NC(C)(C)C(=O)N[C@H](C(=O)N[C@@H](CCCNC(=N)N)C(=O)N[C@@H](CCC(N)=O)C(=O)N[C@@H](CCCNC(=N)N)C(=O)N[C@@H](CC1CCCCC1)C(N)=O)[C@@H](C)O) [Isobutanoyl-[Glu23, D-Pro24, Pya(4)26, Cha27,36, Leu(Me)28, Lys30, Aib31]-PYY(23-36)]

>  <discrete_label>
1

$$$$
>  <binder>
Isobutyryl-R[Abu][Cha][Cha]NS[Aib]TRQR[Cha]-NH2 (SMILES CC[C@H](NC(=O)[C@H](CCCNC(=N)N)NC(=O)C(C)C)C(=O)N[C@@H](CC1CCCCC1)C(=O)N[C@@H](CC1CCCCC1)C(=O)N[C@@H](CC(N)=O)C(=O)N[C@@H](CO)C(=O)NC(C)(C)C(=O)N[C@H](C(=O)N[C@@H](CCCNC(=N)N)C(=O)N[C@@H](CCC(N)=O)C(=O)N[C@@H](CCCNC(=N)N)C(=O)N[C@@H](CC1CCCCC1)C(N)=O)[C@@H](C)O) [Isobutanoyl-[Abu26, Cha27,28,36, Ser30, Aib31]-PYY(25-36)]

>  <discrete_label>
-1

$$$$
>  <binder>
Isobutyryl-R[Abu][Abu][Cha]NL[Aib]TRQR[Cha]-NH2 (SMILES CC[C@H](NC(=O)[C@H](CCCNC(=N)N)NC(=O)C(C)C)C(=O)N[C@@H](CC)C(=O)N[C@@H](CC1CCCCC1)C(=O)N[C@@H](CC(N)=O)C(=O)N[C@@H](CC(C)C)C(=O)NC(C)(C)C(=O)N[C@H](C(=O)N[C@@H](CCCNC(=N)N)C(=O)N[C@@H](CCC(N)=O)C(=O)N[C@@H](CCCNC(=N)N)C(=O)N[C@@H](CC1CCCCC1)C(N)=O)[C@@H](C)O) [Isobutanoyl-[Abu26,27, Cha28,36, Aib31]-PYY(25-36)]

>  <discrete_label>
-1

$$$$
>  <binder>
Ac-S[GABA]RH[Cha][Cha]NL[Aib]TRQR[Cha]-NH2 (SMILES CC(=O)N[C@@H](CO)C(=O)NCCCC(=O)N[C@@H](CCCNC(=N)N)C(=O)N[C@@H](Cc1c[nH]cn1)C(=O)N[C@@H](CC1CCCCC1)C(=O)N[C@@H](CC1CCCCC1)C(=O)N[C@@H](CC(N)=O)C(=O)N[C@@H](CC(C)C)C(=O)NC(C)(C)C(=O)N[C@H](C(=O)N[C@@H](CCCNC(=N)N)C(=O)N[C@@H](CCC(N)=O)C(=O)N[C@@H](CCCNC(=N)N)C(=O)N[C@@H](CC1CCCCC1)C(N)=O)[C@@H](C)O) [Ac-[GABA24, Cha27,28,36, Aib31]-PYY(23-36)]

>  <discrete_label>
1

$$$$
